Experiment: Confirmatory qHTS for Identification of Small Molecule Inhibitors of Huntingtin Promoter Activity; note: nearly all actives have a fitted effect of over 65% in size
Settings: HEK293 HTT promoter firefly luciferase reporter, 24 h; series mostly up to 57.5 µM
Records with an inconclusive call do not appear. Active and inactive are the calls of the source. Calls come from the whole dose curve; as a rule, active = well fitted inhibition curve with a large enough effect; inconclusive = small, poorly fitted or top-dose-only effect; inactive = no such curve, though single readings can be large or run the other way.
Response enum: T = active, F = inactive

> print(dat)
                                   molecule  label
1  CCN(CCCNC(=O)CSc1cc(=O)n(CC)c2ccccc12)c1ccccc1      F
2  CC(C)(C)C(=O)NCCc1nc2ccccc2n1CCCCOc1ccc(Cl)cc1      T
3  COCCn1c2c([n+](Cc3cnccn3)c1C)C(=O)c1ccccc1C2=O      T
4  COc1ccccc1N1CCN(S(=O)(=O)c2ccc(F)c(C(=O)Nc3ccc(Cl)cc3C(F)(F)F)c2)CC1      F
5  COc1ccccc1C1CC(=O)NC(C)=C1C(=O)OC1CCCCCC1 (stereo unspecified)      F

Inquiry: For Cn1c(=O)n(C)c2cc(NS(=O)(=O)c3ccccc3)c(NCc3ccccc3)cc21 , which call appears in the assay record?
Reply text: F

Inquiry: For O=c1c(O)c(-c2ccc(O)cc2)oc2cc(O)cc(O)c12 , which call appears in the assay record?
Reply text: F

Inquiry: For Cc1nc(Nc2n[nH]c3c2CN(C(=O)N[C@H](CN(C)C)c2ccccc2)C3(C)C)c2sccc2n1 , which call appears in the assay record?
Reply text: F

Inquiry: For C#Cc1cccc(Nc2ncnc3cc(OC)c(OCCCCCCC(=O)NO)cc23)c1 , which call appears in the assay record?
Reply text: F

Inquiry: For Cc1ccc(NC(=O)c2ccc(C)c(S(=O)(=O)N3CCCCCC3)c2)cc1 , which call appears in the assay record?
Reply text: F

Inquiry: For CCOc1ccccc1C(=O)Nc1nc2c(s1)CC(C)CC2 (stereo unspecified) , which call appears in the assay record?
Reply text: F

Inquiry: For CC(C)c1ccc(NC(=O)C2CCN(c3nc(-c4ccc(C(C)C)cc4)no3)CC2)cc1 , which call appears in the assay record?
Reply text: T

Inquiry: For CC(=O)c1cccc(NS(=O)(=O)c2cccc(S(=O)(=O)c3ccc(Br)cc3)c2)c1 , which call appears in the assay record?
Reply text: T

Inquiry: For Cc1ccc(CN(C(=O)COc2cccc(Cl)c2)c2ccccn2)o1 , which call appears in the assay record?
Reply text: F

Inquiry: For CCC(=O)N1CCc2cc(S(=O)(=O)NCCC(=O)Nc3ccc(CC)cc3)ccc21 , which call appears in the assay record?
Reply text: F

Inquiry: For COc1ccc(NC(=O)Cn2c(SCc3ccc(C)cc3)nc3cccnc32)cc1OC , which call appears in the assay record?
Reply text: F

Inquiry: For CC(C)c1ccc(C2=CC(c3cccc(Cl)c3)n3c(nc4ccccc43)N2)cc1 (stereo unspecified) , which call appears in the assay record?
Reply text: F

Inquiry: For Cc1ccc(CNC(=O)c2c(Nc3c(C)cccc3C)sc(C(=O)c3ccccc3)c2N)cc1 , which call appears in the assay record?
Reply text: T

Inquiry: For CCOc1ccc(C(=O)Nc2ccc(S(=O)(=O)N3CCCCC3c3cccnc3)cc2)cc1 (stereo unspecified) , which call appears in the assay record?
Reply text: T

Inquiry: For COc1ccc(Nc2nc(-c3ccc(C)cc3)nc3ccccc23)c(OC)c1 , which call appears in the assay record?
Reply text: F

Inquiry: For CCCCN1CC(c2nc3ccccc3n2CCCCOc2ccc(C)c(C)c2)CC1=O (stereo unspecified) , which call appears in the assay record?
Reply text: T

###

Experiment: Confirmatory qHTS for Identification of Small Molecule Inhibitors of Huntingtin Promoter Activity; note: nearly all actives have a fitted effect of over 65% in size; note: potency is the fitted concentration of half-maximal effect
Conditions: HEK293 HTT promoter firefly luciferase reporter, 24 h; series mostly up to 57.5 µM
Inconclusive results are not listed. Calls of active or inactive are those of the source. Calls come from the whole dose curve; as a rule, active = well fitted inhibition curve with a large enough effect; inconclusive = small, poorly fitted or top-dose-only effect; inactive = no such curve, though single readings can be large or run the other way.
measured.attribute: Potency

A selection of reference data follows.
> print(dat)
                                   compound  measured.attribute            result
1  COc1ccccc1N=c1scc(-c2ccc(S(=O)(=O)N3CCCC3)cc2)n1C             Potency  4.78 µM (active)
2  Cc1cc(Nc2sc(C(=O)c3ccc(F)cc3)c(N)c2C(=O)Nc2ccc(F)cc2)ccc1Cl             Potency  1.69 µM (active)
3  Cc1ccccc1OCc1ccc(-c2nc(C#N)c(NCc3cccnc3)o2)o1             Potency    19 µM (active)
4  CC[C@@H]1C(=O)N(C)c2cnc(Nc3ccc(C(=O)NC4CCC(N5CCN(CC6CC6)CC5)CC4)cc3OC)nc2N1C(C)C (stereo not given in full)             Potency          inactive
5  CN[C@H]1[C@@H](O)[C@@H]2O[C@@H]3O[C@H](C)CC(=O)[C@]3(O)O[C@@H]2[C@@H](NC)[C@H]1O             Potency          inactive

Inquiry: Item O=C(C=Cc1cccc(S(=O)(=O)Nc2ccccc2)c1)NO has what recorded Potency?
Reply text: inactive

Inquiry: Item O=C(Nc1ccccc1)c1ccc(Cl)c(S(=O)(=O)Nc2ccccc2)c1 has what recorded Potency?
Reply text: inactive

Inquiry: Item O=C(CCCCCCC(=O)Nc1ccccc1)NO has what recorded Potency?
Reply text: inactive

Inquiry: Item Cc1c(NS(C)(=O)=O)cccc1-c1nc2ccccc2s1 has what recorded Potency?
Reply text: inactive

Inquiry: Item CCCN(c1ccccc1CC)S(=O)(=O)c1ccc2c(c1)CC(C)N2C(=O)C1CC1 (stereo not given) has what recorded Potency?
Reply text: 13.5 µM (active)

###

Experiment: Confirmatory qHTS for Identification of Small Molecule Inhibitors of Huntingtin Promoter Activity; note: nearly all actives have a fitted effect of over 65% in size
Conditions: HEK293 HTT promoter firefly luciferase reporter, 24 h; series mostly up to 57.5 µM
Records with an inconclusive call do not appear. Active and inactive are the calls of the source. The call rests on the fitted dose curve; in most records, active means well fitted inhibition curve with a large enough effect; inconclusive means small, poorly fitted or top-dose-only effect; inactive means no such curve, though single readings can be large or run the other way.
Response enum: 1.0 for active, 0.0 for inactive

Answered cases to consult:
> print(dat)
                                   compound  label
1  CC(=O)N1CCCc2cc(S(=O)(=O)N3CCCC(C(=O)N4CCN(c5ccccc5)CC4)C3)ccc21 (configuration not stated)    1.0
2  COc1cccc(CNC(=O)c2ccc3nc(N4CCCCC4)sc3c2)c1OC    0.0
3  Cc1ccccc1OCC(=O)Nc1ccccc1C(=O)OCc1cc(=O)n2c(C)csc2n1    0.0
4  CN(C)c1ccc(C(=C2C=CC(=[N+](C)C)C=C2)c2ccc(N(C)C)cc2)cc1    1.0
5  CC(C)Oc1ccc(C(=O)N(Cc2ccco2)c2ccccn2)cc1    0.0

Inquiry: For COc1ccc(C(C)n2c(C)c3c(C)nnc(C)c3c2C)cc1 (configuration not stated) , which call appears in the assay record?
Reply text: 0.0

Inquiry: For O=C(Cc1ccccc1)Nc1cccc(-c2cn3cccnc3n2)c1 , which call appears in the assay record?
Reply text: 0.0

Inquiry: For CCOc1ccc(Nc2ncnc3c2nc2n3CCCCC2)cc1 , which call appears in the assay record?
Reply text: 0.0

Inquiry: For O=C(O)c1ccc2c(c1)N(Cc1ccc(F)cc1)C(=O)c1ccccc1S2=O (configuration not stated) , which call appears in the assay record?
Reply text: 0.0

Inquiry: For O=C(Cn1c(=O)oc2cc(S(=O)(=O)N3CCCCC3)ccc21)NCc1ccc(Cl)cc1 , which call appears in the assay record?
Reply text: 0.0

Inquiry: For CN1C(=O)c2ccccc2Sc2ccc(NC(=O)NCc3ccc(Cl)cc3)cc21 , which call appears in the assay record?
Reply text: 1.0

Inquiry: For Cc1oc(-c2cccc(Cl)c2)nc1CN1CCC(C(=O)NCCCN2CCN(c3ccc(F)cc3)CC2)CC1 , which call appears in the assay record?
Reply text: 1.0
